biological target: EGFR kinase (Homo sapiens, UniProt P00533)
Sequence (P00533 25-1210): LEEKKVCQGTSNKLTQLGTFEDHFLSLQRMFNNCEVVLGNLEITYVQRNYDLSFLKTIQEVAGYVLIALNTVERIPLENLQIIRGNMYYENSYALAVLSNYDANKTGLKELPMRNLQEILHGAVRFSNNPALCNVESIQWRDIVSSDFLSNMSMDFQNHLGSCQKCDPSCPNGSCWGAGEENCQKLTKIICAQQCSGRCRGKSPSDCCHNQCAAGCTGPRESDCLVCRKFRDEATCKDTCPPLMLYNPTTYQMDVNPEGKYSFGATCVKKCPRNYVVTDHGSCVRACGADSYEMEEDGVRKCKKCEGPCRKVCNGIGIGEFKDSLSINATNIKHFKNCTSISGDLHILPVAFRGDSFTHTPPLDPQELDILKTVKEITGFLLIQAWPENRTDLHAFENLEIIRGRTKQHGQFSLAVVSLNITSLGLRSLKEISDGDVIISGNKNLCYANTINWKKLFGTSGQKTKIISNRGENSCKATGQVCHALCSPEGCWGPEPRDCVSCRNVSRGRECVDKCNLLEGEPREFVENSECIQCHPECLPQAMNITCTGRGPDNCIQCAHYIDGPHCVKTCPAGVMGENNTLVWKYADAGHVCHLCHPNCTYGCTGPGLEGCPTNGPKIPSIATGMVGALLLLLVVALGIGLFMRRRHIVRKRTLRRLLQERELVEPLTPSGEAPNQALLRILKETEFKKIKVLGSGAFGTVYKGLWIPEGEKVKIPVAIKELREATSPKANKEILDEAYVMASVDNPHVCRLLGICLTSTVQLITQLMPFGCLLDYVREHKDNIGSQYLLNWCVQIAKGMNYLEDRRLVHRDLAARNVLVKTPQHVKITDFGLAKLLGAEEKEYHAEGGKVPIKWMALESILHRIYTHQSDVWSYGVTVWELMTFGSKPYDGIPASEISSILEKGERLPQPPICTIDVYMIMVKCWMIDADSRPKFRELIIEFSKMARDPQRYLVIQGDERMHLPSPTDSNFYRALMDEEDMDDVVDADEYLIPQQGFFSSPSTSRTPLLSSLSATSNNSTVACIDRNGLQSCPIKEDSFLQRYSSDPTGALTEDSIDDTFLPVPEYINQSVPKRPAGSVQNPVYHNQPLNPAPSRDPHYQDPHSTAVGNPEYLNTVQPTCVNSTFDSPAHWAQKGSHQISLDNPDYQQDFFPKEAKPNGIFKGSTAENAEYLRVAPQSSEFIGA
pIC50: −log10 of the molar value.
Label fulfilled when pIC50 is at or above 6; otherwise label not fulfilled.

Worked examples, 8 compounds total:
sample_smiles=CCN(CC)CCN1CCc2[nH]c(/C=C3\C(=O)Nc4ccc(Cl)cc43)c(C)c2C1=O tested_target="EGFR kinase (Homo sapiens, UniProt P00533)" category=fulfilled
sample_smiles=CCN(CC)CCN1CCc2[nH]c(/C=C3\C(=O)Nc4ccc(F)cc43)c(C)c2C1=O tested_target="EGFR kinase (Homo sapiens, UniProt P00533)" category=fulfilled
sample_smiles=CCN(CC)CCN1CCc2[nH]c(/C=C3\C(=O)Nc4cccc(CCO)c43)c(C)c2C1=O tested_target="EGFR kinase (Homo sapiens, UniProt P00533)" category="not fulfilled"
sample_smiles=CCN(CC)CCN1CCc2[nH]c(/C=C3\C(=O)Nc4cccc(Br)c43)c(C)c2C1=O tested_target="EGFR kinase (Homo sapiens, UniProt P00533)" category="not fulfilled"
sample_smiles=Cc1c(/C=C2\C(=O)Nc3ncc(Br)cc32)[nH]c2c1C(=O)N(CCN1CCOCC1)CC2 tested_target="EGFR kinase (Homo sapiens, UniProt P00533)" category=fulfilled
sample_smiles=CCN(CC)CCN1CCc2[nH]c(/C=C3\C(=O)Nc4cccc(-c5cccc(F)c5F)c43)c(C)c2C1=O tested_target="EGFR kinase (Homo sapiens, UniProt P00533)" category=fulfilled
sample_smiles=Cc1c(/C=C2\C(=O)Nc3ccc(F)cc32)[nH]c2c1C(=O)N(CCN1CCCC1)CC2 tested_target="EGFR kinase (Homo sapiens, UniProt P00533)" category=fulfilled
sample_smiles=CCN(CC)CCN1CCc2[nH]c(/C=C3\C(=O)Nc4ccc(Br)cc43)c(C)c2C1=O tested_target="EGFR kinase (Homo sapiens, UniProt P00533)" category=fulfilled

Now for a further compound.
# input Say whether "CCN(CC)CCN1CCc2[nH]c(/C=C3\C(=O)Nc4ccc(OC)cc43)c(C)c2C1=O" shows pIC50 of 6 or more.
# output not fulfilled
